# assay-procedure: LAP4-GFP expression modulators in yeast, confirmation, cell-based, cherry picks, flow cytometry, mother/daughter gates (AID 2271);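 note: ratio of sample to DMSO plate mean so 100% equals DMSO level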
# assay-conditions: S. cerevisiae LAP4-GFP strain, 3 h, at 10 µM, active compounds read high, 100 means same as DMSO control
Could you please report measured GFP response relative to DMSO for the items listed next?
Numbers only; they are read as %.

Inquiry: Could you please provide reported GFP response relative to DMSO for CCOC(=O)c1csc(Nc2nc3ccc(F)cc3s2)n1 ? Thanks!
Reply text: 103

Inquiry: Could you please provide reported GFP response relative to DMSO for COc1ccc(-c2sc(C(=O)c3ccc(Cl)cc3Cl)cc2CC(=O)O)cc1 ? Thanks!
Reply text: 130

Inquiry: Could you please provide reported GFP response relative to DMSO for Cc1ccc(S(=O)(=O)Cc2cc(F)c([N+](=O)[O-])cc2[N+](=O)[O-])cc1 ? Thanks!
Reply text: 251

Inquiry: Could you please provide reported GFP response relative to DMSO for Cc1ccc(N2C(=O)c3ccccc3NC2c2ccccc2O)cc1 (stereo unspecified) ? Thanks!
Reply text: 97.9

Inquiry: Could you please provide reported GFP response relative to DMSO for CCN(CC)Cc1csc2ccc(Br)cc12 ? Thanks!
Reply text: 96.2

Inquiry: Could you please provide reported GFP response relative to DMSO for COC(=O)Nc1c(-c2ccccc2)nc2ccc(C)cn12 ? Thanks!
Reply text: 96.2

Inquiry: Could you please provide reported GFP response relative to DMSO for NC(N)=N/N=C/c1ccc(OCc2ccc(Cl)cc2Cl)cc1 ? Thanks!
Reply text: 115

Inquiry: Could you please provide reported GFP response relative to DMSO for c1cnc2c(SCc3ccc(-c4nnco4)cc3)cccc2c1 ? Thanks!
Reply text: 108

Inquiry: Could you please provide reported GFP response relative to DMSO for COc1ccc(-c2nc3cccc(C)n3c2NCc2ccco2)cc1OC ? Thanks!
Reply text: 100

Inquiry: Could you please provide reported GFP response relative to DMSO for CCn1c(=O)c(C(=O)NC(C)C)c(O)c2ccccc21 ? Thanks!
Reply text: 101

Inquiry: Could you please provide reported GFP response relative to DMSO for CCc1ccc2c(c1)/C(=C/C(=O)c1cccs1)C(=O)N2 ? Thanks!
Reply text: 178

Inquiry: Could you please provide reported GFP response relative to DMSO for COc1ccc([N+](=O)[O-])c(S(=O)(=O)c2ccccc2)n1 ? Thanks!
Reply text: 195

Inquiry: Could you please provide reported GFP response relative to DMSO for Cc1nc2ccccc2n2c(O)c(CC(=O)O)cc12 ? Thanks!
Reply text: 103

Inquiry: Could you please provide reported GFP response relative to DMSO for N/C(Cc1ccc(Cl)cc1Cl)=N\OC(=O)c1ccccc1 ? Thanks!
Reply text: 222

Inquiry: Could you please provide reported GFP response relative to DMSO for COc1ccc(OC)c(C2C(C(=O)Nc3nc4ccccc4s3)=C(C)NC3=C2C(=O)CCC3)c1 (stereo unspecified) ? Thanks!
Reply text: 102

Inquiry: Could you please provide reported GFP response relative to DMSO for CCC1CCCCN1S(=O)(=O)c1ccc(C(=O)Nc2nnc(-c3ccccc3Cl)o2)cc1 (stereo unspecified) ? Thanks!
Reply text: 95.4

Inquiry: Could you please provide reported GFP response relative to DMSO for N/C(Cc1ccc(Cl)cc1)=N\OC(=O)c1cccc2ccccc12 ? Thanks!
Reply text: 199

Inquiry: Could you please provide reported GFP response relative to DMSO for COc1ccccc1C1C2=C(CC(C)(C)CC2=O)N(CC(=O)O)C2=C1C(=O)CC(C)(C)C2 ? Thanks!
Reply text: 105

Inquiry: Could you please provide reported GFP response relative to DMSO for CCOC(=O)C1=C(c2ccccc2)NC(=S)NC1c1cc([N+](=O)[O-])ccc1OC (stereo unspecified) ? Thanks!
Reply text: 97.9

Inquiry: Could you please provide reported GFP response relative to DMSO for NC(=O)c1ccccc1OCC(=O)c1ccc(Cl)cc1 ? Thanks!
Reply text: 96.5

Inquiry: Could you please provide reported GFP response relative to DMSO for COC(=O)c1ccccc1NC(=O)c1nc(S(=O)(=O)Cc2ccccc2)ncc1Cl ? Thanks!
Reply text: 89

Inquiry: Could you please provide reported GFP response relative to DMSO for O=C(Nc1c2ccccc2nc2ccccc12)C(Cl)(Cl)Cl ? Thanks!
Reply text: 88.7

Inquiry: Could you please provide reported GFP response relative to DMSO for Cc1ccc(/C=C/C(=O)c2ccc(C)cc2)cc1 ? Thanks!
Reply text: 98.8

Inquiry: Could you please provide reported GFP response relative to DMSO for CS(=O)(=O)N1CCc2cc(C(=O)Nc3ccc(COCC(F)(F)F)cc3)ccc21 ? Thanks!
Reply text: 92.6

Inquiry: Could you please provide reported GFP response relative to DMSO for CCOc1cc(/C=C2\N=C(C)OC2=O)cc(Br)c1OCCc1ccccc1 ? Thanks!
Reply text: 102

Inquiry: Could you please provide reported GFP response relative to DMSO for Cc1ccc(NC(=O)COc2ccc(Br)cc2C)cc1 ? Thanks!
Reply text: 107

Inquiry: Could you please provide reported GFP response relative to DMSO for Cc1ccc(/C=C/C(=O)N2CC(C)CC(C)C2)o1 (stereo unspecified) ? Thanks!
Reply text: 111

Inquiry: Could you please provide reported GFP response relative to DMSO for O=[N+]([O-])c1cc(CN2CCN(c3cccc(C(F)(F)F)c3)CC2)c2cccnc2c1O ? Thanks!
Reply text: 234

Inquiry: Could you please provide reported GFP response relative to DMSO for COc1ccc(-c2ccc(S(=O)(=O)N3CCOCC3)cc2)cc1 ? Thanks!
Reply text: 107

Inquiry: Could you please provide reported GFP response relative to DMSO for COC(=O)COc1ccc(S(=O)(=O)N2CCc3ccccc3C2)cc1 ? Thanks!
Reply text: 101

Inquiry: Could you please provide reported GFP response relative to DMSO for COCCN1C2=C(COC(C)(C)C2)C(=S)NC1c1ccccc1 (stereo unspecified) ? Thanks!
Reply text: 94.1

Inquiry: Could you please provide reported GFP response relative to DMSO for C/C(=N\NC(=O)Cc1ccc([N+](=O)[O-])cc1)c1cccnc1 ? Thanks!
Reply text: 98.2

Inquiry: Could you please provide reported GFP response relative to DMSO for Oc1ccccc1/C=N/c1c(-c2ccco2)nc2ccccn12 ? Thanks!
Reply text: 93.8

Inquiry: Could you please provide reported GFP response relative to DMSO for COc1ccc(Br)cc1/C=N/NC(=O)Cn1nnnc1N ? Thanks!
Reply text: 99.2

Inquiry: Could you please provide reported GFP response relative to DMSO for Cc1[nH]n(-c2ccccc2)c(=O)c1/C=N/Nc1nncc(-c2ccccc2)n1 ? Thanks!
Reply text: 149

Inquiry: Could you please provide reported GFP response relative to DMSO for COc1cc(/C=C2\C(=O)N(CCC#N)N=C2C)c(Br)cc1OC(C)C ? Thanks!
Reply text: 165

Inquiry: Could you please provide reported GFP response relative to DMSO for CCCn1c(=O)c(C(=O)NCc2ccc(OC)c(OC)c2)c(O)c2ccccc21 ? Thanks!
Reply text: 102

Inquiry: Could you please provide reported GFP response relative to DMSO for O=[N+]([O-])c1ccc(S(=O)(=O)c2ccccc2)nc1 ? Thanks!
Reply text: 176

Inquiry: Could you please provide reported GFP response relative to DMSO for COc1cc(N2C(=O)C=CC2=O)c(OC)cc1Cl ? Thanks!
Reply text: 303

Inquiry: Could you please provide reported GFP response relative to DMSO for Nc1cccc(C(=O)Nc2ccccc2Cl)c1 ? Thanks!
Reply text: 97.9

Inquiry: Could you please provide reported GFP response relative to DMSO for Cn1cc(/C=C/c2cc[n+](C)cc2)c2cc(F)ccc21 ? Thanks!
Reply text: 115

Inquiry: Could you please provide reported GFP response relative to DMSO for CCCc1[nH]nc2c1C(c1ccc(Br)s1)C(C#N)=C(N)O2 (stereo unspecified) ? Thanks!
Reply text: 137

Inquiry: Could you please provide reported GFP response relative to DMSO for O=C(O)CCc1ccc(-c2ccc(Cl)cc2)o1 ? Thanks!
Reply text: 138

Inquiry: Could you please provide reported GFP response relative to DMSO for CC1(C)CCN2CCC(C)(C)c3c(O)ccc1c32 ? Thanks!
Reply text: 115

Inquiry: Could you please provide reported GFP response relative to DMSO for Nc1ccc(S(=O)(=O)c2ccccc2)nc1 ? Thanks!
Reply text: 99.8

Inquiry: Could you please provide reported GFP response relative to DMSO for O=[N+]([O-])/C=C/c1c(OCc2ccccc2)ccc2ccccc12 ? Thanks!
Reply text: 112
